Test: NCI Yeast Anticancer Drug Screen. Data for the sgs1 mgt1 strain (AID 161);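 also: 0% = growth of cultures given vehicle only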
Details: S. cerevisiae sgs1 mgt1 strain, at 50.0 µM, hits give high values
Compounds without any hit were thinned out: in the full panel of roughly 79,000, 15% have a hit.
measurementKind: growth inhibition (%)
Give just the numeric value; % need not be written.

Given item CCCCCCCC/C=C\CCCCCCCC(=O)N1CCN(C(=O)CCCCCCC/C=C/CCCCCCCC)C1 , the value recorded as its growth inhibition is 4.05

Given item Cc1ccc(-c2cs/c(=N\N=C3/CSC(=O)N3Cc3ccccc3)n2-c2cccc(C)c2)cc1 , the value recorded as its growth inhibition is -11.2

Given item CC(C)=CCCC(=O)C(c1nc2n(c1O)C(=N)N=N2)c1nc2n(c1O)C(=N)N=N2 (configuration not stated) , the value recorded as its growth inhibition is 2.1

Given item CCC(SC)C(=O)c1ccccc1 (configuration not stated) , the value recorded as its growth inhibition is 0.5

Given item C/C(CCN(C)C)=N\OC(=O)c1ccccc1 , the value recorded as its growth inhibition is -33.2

Given item C/C(=N\[N+](C)(C)C)c1ccc(C)c(C)c1 , the value recorded as its growth inhibition is -23.2

Given item C/C(Cc1ccccc1)=N\NS(=O)(=O)c1ccc(C)cc1 , the value recorded as its growth inhibition is 35.9

Given item Brc1cncc(Br)c1 , the value recorded as its growth inhibition is -13.3

Given item CCCCCCCCCCCCCCCCCC(=O)N/N=C\c1ccc(O)c(OC)c1 , the value recorded as its growth inhibition is -9.35

Given item CCSc1nc(C)c(C)c(=O)[nH]1 , the value recorded as its growth inhibition is 22.4

Given item CN(C)c1ccc([O-])cc1.CN(C)c1ccc([O-])cc1.CN(C)c1ccc([O-])cc1.CN(C)c1ccc([O-])cc1.[Ti+4] , the value recorded as its growth inhibition is 4.65

Given item CC1=NN(c2nc(N)nc(CCl)n2)CC1 , the value recorded as its growth inhibition is 8.15

Given item COc1ccc(CNc2cnc3ccc(N)cc3n2)cc1OC , the value recorded as its growth inhibition is -40.2

Given item OCCN(CCO)c1ncnc2c1ncn2Cc1ccccc1 , the value recorded as its growth inhibition is -7.05

Given item Cc1occc1C(=S)Nc1ccc(Cl)c(OCC(=O)OC(C)(C)C)c1 , the value recorded as its growth inhibition is 49.2

Given item O=C(Nc1ccccc1)c1cc2cc(N=Nc3ccc(Br)cc3)ccc2oc1=O , the value recorded as its growth inhibition is -0.4

Given item CC(C)(C#CCOC(=O)c1ccc([N+](=O)[O-])cc1)OC(=O)c1ccc([N+](=O)[O-])cc1 , the value recorded as its growth inhibition is 18.5

* * *

Assay: NCI Yeast Anticancer Drug Screen. Data for the mec2-1 strain (AID 157)
Settings: S. cerevisiae mec2-1 strain, at 50.0 µM, hits give high values
Compounds without any hit were thinned out: in the full panel of roughly 79,000, 15% have a hit.
measurementKind: growth inhibition (%)
Give just the numeric value; % need not be written.

Given item COC(=S)SSC(=S)NCCN(CCNC(=S)SSC(=S)OC)C(=S)SSC(=S)OC , the value recorded as its growth inhibition is 6.2

Given item COC(=O)C(C(=O)C(=O)Nc1ccc([N+](=O)[O-])cc1)c1nc2ccc([N+](=O)[O-])cc2[nH]c1=O (configuration not stated) , the value recorded as its growth inhibition is -3.1

Given item CC(=O)/C(=C/N1CC(=O)NC1=S)C(=O)Nc1ccccc1 , the value recorded as its growth inhibition is -23.2

Given item O=CNc1ccc(Br)cc1 , the value recorded as its growth inhibition is -0.9

Given item NC(=O)NC(=O)/C=C/C(=O)O , the value recorded as its growth inhibition is -12.9

Given item Cc1ccc(N=C(c2ccccc2)c2ccc([N+](=O)[O-])cc2)cc1 , the value recorded as its growth inhibition is -7.05

Given item COc1cc(NCCC2CCCCN2C)c2ncccc2c1 (configuration not stated) , the value recorded as its growth inhibition is -22.4

* * *

Kindly supply the reported growth inhibition values for the records listed here.
Assay: NCI Yeast Anticancer Drug Screen. Data for the bub3 strain (AID 167)
Conditions: S. cerevisiae bub3 mutant strain, at 50.0 µM, hits give high values
About 79,000 compounds went through this panel and 15% of them were active in at least one assay; those are over-represented in the sample as a whole.
Give just the numeric value; % need not be written.

Given item O=C(O)C1CCCCC1C(=O)NCc1ccco1 (configuration not stated) , the value recorded as its growth inhibition is 25.4

Given item CC(C)(O)C(Cc1ccccc1)c1ccccc1 (configuration not stated) , the value recorded as its growth inhibition is -23.6

Given item c1ccc2c(c1)nc1n2CC2(CS1)CSc1nc3ccccc3n1C2 , the value recorded as its growth inhibition is -13.4

Given item CCOC(=O)C(CCCCC(CN(CC)CC)(C(=O)OCC)c1ccccc1)(CN(CC)CC)c1ccccc1 (configuration not stated) , the value recorded as its growth inhibition is 2

Given item Cc1cc(N(CCC#N)CCC#N)ccc1/C=C1/N=C(c2ccccc2)N(N)C1=O , the value recorded as its growth inhibition is 5.15

Given item CCOC(=O)C(C)(C)c1ccc(OC)cc1 , the value recorded as its growth inhibition is 2.6

Given item O=C(/C=C/c1ccco1)CCN1CCOCC1 , the value recorded as its growth inhibition is -7.25

Given item O=[N+]([O-])c1cc(O)ccc1O , the value recorded as its growth inhibition is -1

Given item Cc1ccc(N2C(=O)/C(=C/c3ccc(N(CCC#N)CCC#N)cc3C)N=C2c2cc([N+](=O)[O-])ccc2Cl)cc1 , the value recorded as its growth inhibition is 30.4

Given item CCOC(=O)c1[nH]c2cccc3c2c1CC[C@H](NC(=O)C(F)(F)F)C3=O , the value recorded as its growth inhibition is 0.95

Given item C#CCCOC1(OC)N=NC(C)(C)O1 (configuration not stated) , the value recorded as its growth inhibition is -2.65

Given item CC(C)Cn1cnc2c(Cl)nc3ccccc3c21 , the value recorded as its growth inhibition is 33.5

Given item CCCCCCCCCCCCCCCCCC(=O)OCC(COC1OC(CS(=O)(=O)O)C(O)C(O)C1O)OC(=O)CCCCCCCCCCCCCCCCC (configuration not stated) , the value recorded as its growth inhibition is -1.95

Given item CC1=[N+]([O-])C2(CCCC2)N(O)C1(C)C , the value recorded as its growth inhibition is -6.25

Given item Cc1ccc(Cc2ccccc2C(=O)O)cc1 , the value recorded as its growth inhibition is -2.45

Given item COCCOC(=O)c1ccccc1Cl , the value recorded as its growth inhibition is 7.1

Given item CSc1[nH]c2ncnc(Cl)c2c1C#N , the value recorded as its growth inhibition is -27.3

* * *

Assay: NCI Yeast Anticancer Drug Screen. Data for the cln2 rad14 strain (AID 165);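 also: 0% = growth equal to vehicle treated cultures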
Conditions: S. cerevisiae cln2 rad14 strain, at 50.0 µM, hits give high values
Description: Growth inhibition of yeast strains with defined genetic alterations is measured as a screen for potential anti-cancer activity. Selected strains with alterations in DNA damage repair or cell cycle control were exposed to compounds and growth inhibition was measured relative to vehicle treated controls. The strain used in this assay is cln2 rad14
The panel holds about 79,000 compounds, 15% with a hit somewhere; the sample as a whole holds those more often.
Kindly supply the reported growth inhibition values for the records listed here.
Give just the numeric value; % need not be written.

Given item CCCCCCCCCCn1cnc2c(=O)[nH]c(N)nc21 , the value recorded as its growth inhibition is -0.25

Given item O=C1c2cc([N+](=O)[O-])ccc2-c2c(I)cccc21 , the value recorded as its growth inhibition is 5.75

Given item CC(=O)C1(C)SC(N(c2ccccc2)c2ccccc2)=NC1=O (stereo not drawn) , the value recorded as its growth inhibition is 2.4

Given item O=C(CCCCC(=O)Nc1ccc2[nH]c3ccccc3c(=O)c2c1)Nc1ccc2[nH]c3ccccc3c(=O)c2c1 , the value recorded as its growth inhibition is -2.5

Given item CCOC(=O)NC(Nc1ccc(S(=O)(=O)Nc2ncccn2)cc1)(C(=O)OCC)C(F)(F)F (stereo not drawn) , the value recorded as its growth inhibition is 32.1

Given item O=S(=O)(c1ccccc1)C1CCCCC1I (stereo not drawn) , the value recorded as its growth inhibition is -30.5

Given item OCC1OC(Nc2ccc(F)cc2)C(O)C1O (stereo not drawn) , the value recorded as its growth inhibition is 30.1

Given item c1ccc(-c2nc3cc4ccccc4cc3nc2-c2ccccc2)cc1 , the value recorded as its growth inhibition is -35.6

* * *

Experiment: NCI Yeast Anticancer Drug Screen. Data for the sgs1 mgt1 strain (AID 161);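 also: 0% = growth of cultures given vehicle only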
Settings: S. cerevisiae sgs1 mgt1 strain, at 50.0 µM
This is part of a sample that, as a whole, favours compounds with a hit. Of some 79,000 tested, about 15% had one in any assay. Active and inactive are the calls of the source. Cut-off read from the data, not from the text of the source: active = growth inhibition above about 70%; inactive = the rest.
Thanks in advance; please answer with one of these: active, inactive

# fetch the recorded call for C1CCSCCCCSCCCCSCCCCSC1 here
inactive

# fetch the recorded call for Oc1cc(O)c2c(-c3c(O)c(-c4ccc(O)c(O)c4)[o+]c4cc(O)cc(O)c34)c(O)c(-c3ccc(O)c(O)c3)[o+]c2c1 here
inactive

# fetch the recorded call for COc1cccc(OC)c1NC(=O)NCCCl here
inactive

# fetch the recorded call for CCC1CN2CCc3c([nH]c4ccccc34)[C@@](C(=O)OC)(c3cc4c(cc3OC)N(C)C3C(O)(C(=O)OC)C(C(=O)OC)C5(CC)C=CCN6CCC43C65)C[C@@H](C2)[C@@H]1C(C)(C)C (stereo partly drawn) here
inactive

# fetch the recorded call for CSc1nc2c(c(=O)n(C)c(=O)n2C)n1C here
inactive

# fetch the recorded call for c1ccc2c(C3CO3)c3ccc4ccccc4c3cc2c1 (stereo not drawn) here
active

# fetch the recorded call for CCCCCC(CSCC)C(=O)/C=C/c1ccccc1 (stereo not drawn) here
inactive

# fetch the recorded call for CC(C)CC(C)OB(OC(C)CC(C)C)OC(C)CC(C)C (stereo not drawn) here
inactive

# fetch the recorded call for COC(=O)[C@]1(C)CCC[C@]2(C)c3cc(Br)c(C(C)C)cc3CC[C@H]12 here
inactive

# fetch the recorded call for CCOc1cn(C2CC(O)C(CO)O2)c(=O)[nH]c1=O (stereo not drawn) here
inactive

# fetch the recorded call for C=CCC(O)c1ccc2c(c1)OCO2 (stereo not drawn) here
inactive

# fetch the recorded call for COc1cc(C[C@H]2C(=O)OCC2Cc2ccc(OC)c(OC)c2)ccc1O (stereo partly drawn) here
inactive

# fetch the recorded call for CCOc1cccc(C=Nc2ccccc2SSc2ccccc2N=Cc2cccc(OCC)c2O)c1O here
inactive

# fetch the recorded call for CCCCCCCCC(=O)OCC(=O)c1ccc(-c2ccccc2)cc1 here
inactive

# fetch the recorded call for CCOC(=O)C(=O)Nc1ccccc1 here
inactive

# fetch the recorded call for CC1=NN(C(=O)c2ccc(Cl)cc2)C(=O)/C1=C/c1ccco1 here
inactive

# fetch the recorded call for CC1CC(=O)CC[C@@H]1OCc1ccccc1 (stereo partly drawn) here
inactive

# fetch the recorded call for COC12C=CC(CC1)C1C(=O)C=CC(=O)C12 (stereo not drawn) here
inactive
